B1: FAM46D (parent)
chain: LELKFVSSLRRQFEFSVDSFQIVL

variants of: B1; experiment: protein stability index of a GFP-peptide fusion (GPS, HEK-293T) (PSI 1-6); higher = more stable; conditions: c terminus: a fixed tail appended;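 further: lentivirally expressed fusions sorted by FACS into six bins by GFP to DsRed ratio, PSI derived from sequencing read proportions per bin multiplied by bin number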
Class label 1: protein stability index at least 3. Class label 0: protein stability index below 3.

{"columns": ["residueChange", "classLabel"],
 "data": [
  ["L24M", "label 0"],
  ["F13D", "label 0"],
  ["R10C", "label 0"],
  ["I22N", "label 1"],
  ["F13T", "label 1"]
]}

Is the recorded value of protein stability index equal to or greater than 3 for this variant? "S8Y"
label 0

Can "L9R" be said to have protein stability index at or above 3?
label 1

Entry "D18P" : is its protein stability index no less than 3?
label 1

Determine whether this variant has protein stability index no lower than 3: "K4I"
label 0
